Where these numbers come from: patent US20170334877A1

EXPERIMENT: High temperature test (60° C. incubator)
Format: physicochemical
CONDITION_PARAMETERS: 60° C., Day 0; hydrochloride
Structures can show the parent of a compound that is named as a salt.
Listed here: items and their measured Purity (%).
Enter your answer as a number in %; do not include the unit.

q: Give the reported value of Purity (%) for this record: Cc1nc(Nc2ccc(F)cc2)nc(N2CCc3ccccc3C2C)c1C (single isomer, unassigned) [revaprazan hydrochloride crystalline form IV]
a: 99.93

###

Listed here: items and their measured Purity (%).
EXPERIMENT: Accelerated test (40±2° C., relative humidity 75±5%, 6 months, sealed polyethylene film bag)
Type: physicochemical
CONDITION_PARAMETERS: 40±2° C., RH 75±5%, 6th month; hydrochloride
Counter-ions that a name gives are not always drawn.
Record the result as a number with its unit.

Some entries whose results are on file:
>  <MOLECULE>
Cc1nc(Nc2ccc(F)cc2)nc(N2CCc3ccccc3C2C)c1C (single isomer, unassigned) [revaprazan hydrochloride crystalline form V]

>  <OBSERVED_RESULT>
99.94%

$$$$
>  <MOLECULE>
Cc1nc(Nc2ccc(F)cc2)nc(N2CCc3ccccc3C2C)c1C (single isomer, unassigned) [revaprazan hydrochloride crystalline form II]

>  <OBSERVED_RESULT>
99.95%

$$$$
>  <MOLECULE>
Cc1nc(Nc2ccc(F)cc2)nc(N2CCc3ccccc3C2C)c1C (single isomer, unassigned) [revaprazan hydrochloride crystalline form III]

>  <OBSERVED_RESULT>
99.95%

$$$$

q: Give the reported value of Purity (%) for this record: Cc1nc(Nc2ccc(F)cc2)nc(N2CCc3ccccc3C2C)c1C (single isomer, unassigned) [revaprazan hydrochloride crystalline form IV]
a: 99.94%

q: Give the reported value of Purity (%) for this record: Cc1nc(Nc2ccc(F)cc2)nc(N2CCc3ccccc3C2C)c1C (single isomer, unassigned) [revaprazan hydrochloride crystalline form I]
a: 99.95%

###

EXPERIMENT: High humidity test (25° C., relative humidity 75±5%)
Assay type: physicochemical
CONDITION_PARAMETERS: 25° C., RH 75±5%, 5th day; hydrochloride
Structures can show the parent of a compound that is named as a salt.
Listed here: items and their measured Purity (%).
Enter your answer as a number in %; do not include the unit.

q: Give the reported value of Purity (%) for this record: Cc1nc(Nc2ccc(F)cc2)nc(N2CCc3ccccc3C2C)c1C (single isomer, unassigned) [revaprazan hydrochloride crystalline form V]
a: 99.94

q: Give the reported value of Purity (%) for this record: Cc1nc(Nc2ccc(F)cc2)nc(N2CCc3ccccc3C2C)c1C (single isomer, unassigned) [revaprazan hydrochloride crystalline form IV]
a: 99.96

q: Give the reported value of Purity (%) for this record: Cc1nc(Nc2ccc(F)cc2)nc(N2CCc3ccccc3C2C)c1C (single isomer, unassigned) [revaprazan hydrochloride crystalline form III]
a: 99.92

q: Give the reported value of Purity (%) for this record: Cc1nc(Nc2ccc(F)cc2)nc(N2CCc3ccccc3C2C)c1C (single isomer, unassigned) [revaprazan hydrochloride crystalline form I]
a: 99.93

q: Give the reported value of Purity (%) for this record: Cc1nc(Nc2ccc(F)cc2)nc(N2CCc3ccccc3C2C)c1C (single isomer, unassigned) [revaprazan hydrochloride crystalline form II]
a: 99.93

###

EXPERIMENT: High temperature test (60° C. incubator)
Type: physicochemical
CONDITION_PARAMETERS: 60° C., 5th day; hydrochloride
Counter-ions that a name gives are not always drawn.

>  <COMPOUND>
Cc1nc(Nc2ccc(F)cc2)nc(N2CCc3ccccc3C2C)c1C (single isomer, unassigned) [revaprazan hydrochloride crystalline form II]

>  <Relevant substances>
Not detected

$$$$
>  <COMPOUND>
Cc1nc(Nc2ccc(F)cc2)nc(N2CCc3ccccc3C2C)c1C (single isomer, unassigned) [revaprazan hydrochloride crystalline form V]

>  <Relevant substances>
Undetected

$$$$
>  <COMPOUND>
Cc1nc(Nc2ccc(F)cc2)nc(N2CCc3ccccc3C2C)c1C (single isomer, unassigned) [revaprazan hydrochloride crystalline form I]

>  <Relevant substances>
Not detected

$$$$
>  <COMPOUND>
Cc1nc(Nc2ccc(F)cc2)nc(N2CCc3ccccc3C2C)c1C (single isomer, unassigned) [revaprazan hydrochloride crystalline form IV]

>  <Relevant substances>
Undetected

$$$$

###

EXPERIMENT: Accelerated test (40±2° C., relative humidity 75±5%, 6 months, sealed polyethylene film bag)
Assay type: physicochemical
CONDITION_PARAMETERS: 40±2° C., RH 75±5%, 2nd month; hydrochloride
Structures can show the parent of a compound that is named as a salt.

>  <MOLECULE>
Cc1nc(Nc2ccc(F)cc2)nc(N2CCc3ccccc3C2C)c1C (single isomer, unassigned) [revaprazan hydrochloride crystalline form IV]

>  <Relevant substances>
Undetected

$$$$
>  <MOLECULE>
Cc1nc(Nc2ccc(F)cc2)nc(N2CCc3ccccc3C2C)c1C (single isomer, unassigned) [revaprazan hydrochloride crystalline form V]

>  <Relevant substances>
Undetected

$$$$
>  <MOLECULE>
Cc1nc(Nc2ccc(F)cc2)nc(N2CCc3ccccc3C2C)c1C (single isomer, unassigned) [revaprazan hydrochloride crystalline form III]

>  <Relevant substances>
Undetected

$$$$

###

EXPERIMENT: Accelerated test (40±2° C., relative humidity 75±5%, 6 months, sealed polyethylene film bag)
Format: physicochemical
CONDITION_PARAMETERS: 40±2° C., RH 75±5%, 6th month; hydrochloride
Where a name gives a salt, the structure may show the parent alone.

>  <COMPOUND>
Cc1nc(Nc2ccc(F)cc2)nc(N2CCc3ccccc3C2C)c1C (single isomer, unassigned) [revaprazan hydrochloride crystalline form V]

>  <Relevant substances>
Undetected

$$$$
>  <COMPOUND>
Cc1nc(Nc2ccc(F)cc2)nc(N2CCc3ccccc3C2C)c1C (single isomer, unassigned) [revaprazan hydrochloride crystalline form IV]

>  <Relevant substances>
Undetected

$$$$
>  <COMPOUND>
Cc1nc(Nc2ccc(F)cc2)nc(N2CCc3ccccc3C2C)c1C (single isomer, unassigned) [revaprazan hydrochloride crystalline form III]

>  <Relevant substances>
Undetected

$$$$

###

EXPERIMENT: Accelerated test (40±2° C., relative humidity 75±5%, 6 months, sealed polyethylene film bag)
Format: physicochemical
CONDITION_PARAMETERS: 40±2° C., RH 75±5%, 3rd month; hydrochloride
Where a name gives a salt, the structure may show the parent alone.
QUANTITY: Relevant substances

>  <COMPOUND>
Cc1nc(Nc2ccc(F)cc2)nc(N2CCc3ccccc3C2C)c1C (single isomer, unassigned) [revaprazan hydrochloride crystalline form III]

>  <OBSERVED_RESULT>
Undetected

$$$$
>  <COMPOUND>
Cc1nc(Nc2ccc(F)cc2)nc(N2CCc3ccccc3C2C)c1C (single isomer, unassigned) [revaprazan hydrochloride crystalline form V]

>  <OBSERVED_RESULT>
Undetected

$$$$
>  <COMPOUND>
Cc1nc(Nc2ccc(F)cc2)nc(N2CCc3ccccc3C2C)c1C (single isomer, unassigned) [revaprazan hydrochloride crystalline form IV]

>  <OBSERVED_RESULT>
Undetected

$$$$

###

EXPERIMENT: Light illumination test (intense light, 4500±500 Lx)
Assay type: physicochemical
CONDITION_PARAMETERS: light 4500±500 Lx, 5th day; hydrochloride
Structures can show the parent of a compound that is named as a salt.
QUANTITY: Purity (%)
Enter your answer as a number in %; do not include the unit.

>  <COMPOUND>
Cc1nc(Nc2ccc(F)cc2)nc(N2CCc3ccccc3C2C)c1C (single isomer, unassigned) [revaprazan hydrochloride crystalline form V]

>  <MEASUREMENT_UNITS>
%

>  <OBSERVED_RESULT>
99.95

$$$$
>  <COMPOUND>
Cc1nc(Nc2ccc(F)cc2)nc(N2CCc3ccccc3C2C)c1C (single isomer, unassigned) [revaprazan hydrochloride crystalline form IV]

>  <MEASUREMENT_UNITS>
%

>  <OBSERVED_RESULT>
99.95

$$$$
>  <COMPOUND>
Cc1nc(Nc2ccc(F)cc2)nc(N2CCc3ccccc3C2C)c1C (single isomer, unassigned) [revaprazan hydrochloride crystalline form I]

>  <MEASUREMENT_UNITS>
%

>  <OBSERVED_RESULT>
99.92

$$$$

Here is the next item to consider.
q: Give the reported value of Purity (%) for this record: Cc1nc(Nc2ccc(F)cc2)nc(N2CCc3ccccc3C2C)c1C (single isomer, unassigned) [revaprazan hydrochloride crystalline form II]
a: 99.97

###

EXPERIMENT: Accelerated test (40±2° C., relative humidity 75±5%, 6 months, sealed polyethylene film bag)
Assay type: physicochemical
CONDITION_PARAMETERS: 40±2° C., RH 75±5%, 2nd month; hydrochloride
Where a name gives a salt, the structure may show the parent alone.
QUANTITY: Purity (%)
Enter your answer as a number in %; do not include the unit.

Some entries whose results are on file:
>  <COMPOUND>
Cc1nc(Nc2ccc(F)cc2)nc(N2CCc3ccccc3C2C)c1C (single isomer, unassigned) [revaprazan hydrochloride crystalline form I]

>  <OBSERVED_RESULT>
99.92

$$$$
>  <COMPOUND>
Cc1nc(Nc2ccc(F)cc2)nc(N2CCc3ccccc3C2C)c1C (single isomer, unassigned) [revaprazan hydrochloride crystalline form V]

>  <OBSERVED_RESULT>
99.95

$$$$
>  <COMPOUND>
Cc1nc(Nc2ccc(F)cc2)nc(N2CCc3ccccc3C2C)c1C (single isomer, unassigned) [revaprazan hydrochloride crystalline form IV]

>  <OBSERVED_RESULT>
99.90

$$$$
>  <COMPOUND>
Cc1nc(Nc2ccc(F)cc2)nc(N2CCc3ccccc3C2C)c1C (single isomer, unassigned) [revaprazan hydrochloride crystalline form II]

>  <OBSERVED_RESULT>
99.95

$$$$

q: Give the reported value of Purity (%) for this record: Cc1nc(Nc2ccc(F)cc2)nc(N2CCc3ccccc3C2C)c1C (single isomer, unassigned) [revaprazan hydrochloride crystalline form III]
a: 99.91
